# ASSAYED_TARGET: S1P1 (Homo sapiens (Human))
# PROTOCOL: S1P1 agonist assay (Ec50 S1P1Ag)
# Format: cell-based
The recorded EC50 of each item maps onto one of these classes: lower band: < 10 nM; central band: ≥ 10 nM and < 200 nM; upper band: ≥ 200 nM

These recorded examples may help you get a feel for the data.
COc1cc(-c2nc(-c3ccc(C)c(OC)c3)no2)ccn1 [Compound 40] = upper band
CCOc1ccc(-c2nc(-c3ccc(CN(C)C)cc3C)no2)cc1OCC [Compound 128] = central band
CCOc1cccc(-c2nc(-c3ccncc3)no2)c1 [Compound 38] = upper band
CC(C)Cc1ccc(C(C)c2nc(-c3ccc(S(N)(=O)=O)cc3)no2)cc1 (stereo not shown) [Compound 16] = lower band
CCOc1ccc(-c2nc(-c3cccc4c3CCC4N(C)C)no2)cc1OCC (stereo not shown) [Compound 217] = central band

Query: Looking at CCOc1ccc(-c2nc(-c3ccnc4[nH]ccc34)no2)cc1OCC [Compound 167] , which class would you pick?
Reply: lower band

Query: Follow-up entry: CCOc1ccc(-c2nc(-c3cccc(CO)c3C)no2)cc1OCC [Compound 177]
Reply: lower band

Query: Follow-up entry: FC(F)(F)c1cc(-c2nc(-c3cccnc3)no2)ccc1-c1ccccc1 [Compound 63]
Reply: central band

Query: Follow-up entry: CCOc1ccc(-c2ncc(-c3ccncc3)o2)cc1OCC [Compound 268]
Reply: central band

Query: Follow-up entry: CCOc1cccc(-c2nc(-c3ccncc3C)no2)c1 [Compound 64]
Reply: upper band

Query: Follow-up entry: Nc1cc(-c2nc(-c3ccc(S(N)(=O)=O)cc3)no2)ccn1 [Compound 18]
Reply: upper band

Query: Follow-up entry: Cc1cncc(-c2noc(-c3ccc(-c4ccccc4)c(C(F)(F)F)c3)n2)c1 [Compound 62]
Reply: lower band

Query: Follow-up entry: CCOc1ccc(-c2nc(-c3cccc4[nH]cc(CN5CC[C@@H](O)C5)c34)no2)cc1OCC [Compound 231]
Reply: central band

Query: Follow-up entry: CCOc1ccc(-c2nc(-c3ccnc(CO)c3)no2)cc1OCC [Compound 209]
Reply: lower band

====

# ASSAYED_TARGET: S1P1 (Homo sapiens (Human), UniProt P21453)
# Sequence (P21453 whole entry): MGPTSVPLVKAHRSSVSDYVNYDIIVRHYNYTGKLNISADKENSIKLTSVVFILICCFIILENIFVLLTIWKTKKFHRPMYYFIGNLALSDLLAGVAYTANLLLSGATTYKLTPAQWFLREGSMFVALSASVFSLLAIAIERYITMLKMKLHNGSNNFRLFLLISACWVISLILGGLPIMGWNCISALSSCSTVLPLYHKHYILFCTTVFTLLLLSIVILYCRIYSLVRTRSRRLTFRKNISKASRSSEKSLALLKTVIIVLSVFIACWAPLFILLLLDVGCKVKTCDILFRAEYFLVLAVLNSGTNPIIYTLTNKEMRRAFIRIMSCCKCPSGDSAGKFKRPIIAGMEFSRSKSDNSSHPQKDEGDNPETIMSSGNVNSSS
# PROTOCOL: S1P1 agonist assay (Ec50 S1P1Ag)
# Type: cell-based
pEC50: −log10 of the molar value.
Label satisfied for high-side pEC50 (at or above 8) and not satisfied for low-side pEC50 (below it).

These recorded examples may help you get a feel for the data.
CCCOc1ccc(-c2nc(-c3ccncc3)no2)cc1 [Compound 10] = not satisfied
Cc1cnccc1-c1noc(-c2ccc(-c3ccccc3)c(C(F)(F)F)c2)n1 [Compound 60] = satisfied
CCn1nc(C)cc1-c1nc(-c2ccc(C)c(OC)c2)no1 [Compound 48] = not satisfied
CC(C)Oc1ccc(-c2ncc(-c3cccc4c3CCC4NCCO)o2)cc1C#N (stereo not drawn) [Compound 271] = satisfied
CCOc1ccc(-c2nc(-c3ccc4ccccc4c3)no2)cc1OCC [Compound 212] = not satisfied

Please examine the following record next.
Query: Test whether the compound CCOc1ccc(-c2nc(-c3cccc4ccccc34)no2)cc1OCC [Compound 211] records pEC50 of 8 or higher.
Reply: not satisfied

====

# PROTOCOL: Stability in mouse hepatic microsomes
# Type: in vitro ADME
# CONDITION_DETAILS: 1.8 mg/ml hepatic microsomes, NADPH dependent
# Method: From the initial mouse efficacy studies (FIG. 5) plasma levels of Compound 236 at 5 hours were: 395/87.6 Mean/SD. Stability in hepatic microsomes for Compound 236 was species dependent. […] All were NADPH dependent. In the presence of 1.8 mg/ml hepatic microsomes the half lives (minutes) are human stable, Mouse 50, Rat 16.
OBSERVABLE: half-life (min)
Answers are plain numbers, in min.

Query: Which value of half-life has been reported for CCOc1ccc(-c2nc(-c3cccc4c3CCC4NCCO)no2)cc1OCC (stereo not shown) in the records?
Reply: 50
